Parameter: GI50. Scope: all listed entries.
System: MCF7
test details: NCI tumour cell line growth inhibition, 48 h
Calls of active or inactive are those of the source. No stated cut-off is given here; in the data, active = GI50 up to about 1.1 µM and inactive = higher. Numbered stars: 1 amine (or outer) side, 2 acyl side, 3 side chain; on linkers, the order of the positions; unused ones are H or OH. Bridge positions count the residues as written; N and C are the ends. Square brackets hold non-standard residues; d marks the D form. Peptide text beside a SMILES is read from it. X58 = COc1c(N[*:1])cccc1C(=O)O[C@H](C(=O)[C@H](C)C(=O)[*:2])C(C)C; X57 = CC(C)C[C@H](C(=O)[*:2])C(C)C(=O)C1CCCN1[*:1]; NMeY = CN[C@@H](Cc1ccc(O)cc1)C(=O)O; Lac = C[C@H](O)C(=O)O

>  <molecule>
COc1ccc(C[C@H]2C(=O)O[C@H](C)[C@H](NC(=O)[C@@H](CC(C)C)C(C)C(=O)C3CCCN3C(=O)[C@H](C)O)C(=O)Nc3cccc(c3OC)C(=O)O[C@@H](C(C)C)C(=O)[C@H](C)C(=O)N[C@@H](CC(C)C)C(=O)N3CCC[C@H]3C(=O)N2C)cc1 (some centres undefined) (H-[Lac][X57]T[X58]LP[NMeY](Me); ester 3-C)

>  <reported endpoint>
GI50

>  <endpoint result>
> 12.5 µM (inactive)

$$$$
>  <molecule>
N#Cc1ccccc1C#C/C=C\C#Cc1ccccn1

>  <reported endpoint>
GI50

>  <endpoint result>
14.4 µM (inactive)

$$$$
>  <molecule>
O=C1CCCC/C1=C\c1ccc(Br)cc1

>  <reported endpoint>
GI50

>  <endpoint result>
2.71 µM (inactive)

$$$$
>  <molecule>
C(=N\c1nc2cc3sc(/N=C/c4ccccc4)nc3cc2s1)/c1ccccc1

>  <reported endpoint>
GI50

>  <endpoint result>
20.8 µM (inactive)

$$$$
>  <molecule>
CN1CCCOC(c2ccc(Cl)cc2)O1 (centres undefined)

>  <reported endpoint>
GI50

>  <endpoint result>
> 100 µM (inactive)

$$$$

GI50 in this record for Cc1oc2c(cc(O)c3cc(O)ccc32)c2cccc1-2 : 33.4 µM (inactive)

Sure, the documented GI50 for COC(=O)C1=CC2CCCC1(O)C(C(C)=O)C2 (centres undefined) is > 79.6 µM (inactive)

The molecule identified as O=C1CC(=O)n2cnc3cccc(c32)N1 registered its GI50 at > 100 µM (inactive)

In plain terms, Nc1cccc(C2CCCc3c2[nH]c2ccccc32)c1 (centres undefined) has a documented GI50 of 21.8 µM (inactive)
